Record set of pIC50 for target or system Matrilysin (Homo sapiens).
pIC50: −log10 of the molar value.

{"entry.smiles": "CCCCOc1ccc(S(=O)(=O)N2C[C@@H](N3C(=O)CN(CCC)C3=O)C[C@@H]2C(=O)NO)cc1", "readout.relation": "=", "pIC50": 5.92}
{"entry.smiles": "CCCCOc1ccc(S(=O)(=O)N2C[C@@H](N3C(=O)NC(C)(C)C3=O)C[C@@H]2C(=O)NO)cc1", "readout.relation": "=", "pIC50": 6.35}
{"entry.smiles": "CC(C)COc1ccc(S(=O)(=O)N2C[C@@H](N3C(=O)CN(C)C3=O)C[C@@H]2C(=O)NO)cc1", "readout.relation": "=", "pIC50": 5.64}
{"entry.smiles": "CCOc1ccc(S(=O)(=O)N2C[C@@H](N3C(=O)CN(C)C3=O)C[C@@H]2C(=O)NO)cc1", "readout.relation": "=", "pIC50": 5.12}
{"entry.smiles": "COc1ccc(S(=O)(=O)N2C[C@@H](N(Cc3cccnc3)S(C)(=O)=O)C[C@@H]2C(=O)NO)cc1", "readout.relation": "=", "pIC50": 5.57}
{"entry.smiles": "O=C(NO)[C@H]1C[C@H](N2CCCC2)CN1S(=O)(=O)c1ccc(Oc2ccc(F)cc2)cc1", "readout.relation": "=", "pIC50": 6.07}
{"entry.smiles": "COc1ccc(S(=O)(=O)N2C[C@@H](N)C[C@@H]2C(=O)NO)cc1", "readout.relation": "=", "pIC50": 5.37}
{"entry.smiles": "CN1CC(=O)N([C@H]2C[C@H](C(=O)NO)N(S(=O)(=O)c3ccc(Oc4ccncc4)cc3)C2)C1=O", "readout.relation": "=", "pIC50": 5.13}
{"entry.smiles": "CS(=O)(=O)N[C@H]1C[C@H](C(=O)NO)N(S(=O)(=O)c2ccc(Oc3ccncc3)cc2)C1", "readout.relation": "<", "pIC50": 5.00}
{"entry.smiles": "COCCOc1ccc(S(=O)(=O)N2C[C@@H](N3C(=O)CN(C)C3=O)C[C@@H]2C(=O)NO)cc1", "readout.relation": "=", "pIC50": 5.04}
